Taken from ChEMBL document CHEMBL4196022.

# MBC per entry
Tested on: Staphylococcus aureus
Test: Bactericidal activity against methicillin-resistant Staphylococcus aureus NRS119 up to 18 hrs by broth microdilution assay
Format: functional
Details: NRS119, 18 h, read-out: MBC99.9
Note: unit µg/mL is implicit; provide only the numeric part.

Solved cases (4 shown):
- chem_smiles: "CCCCCC#Cc1ccc(-c2nc(C)c(/C(C)=N/NC(=N)N)s2)cc1"
  result_unit: "µg/mL"
  MBC: 2
- chem_smiles: "C/C(=N\\NC(=N)N)c1sc(-c2ccc(C#CC3CCCC3)cc2)nc1C"
  result_unit: "µg/mL"
  MBC: 2
- chem_smiles: "C/C(=N\\NC(=N)N)c1sc(-c2ccc(C#CC3CCCCC3)cc2)nc1C"
  result_unit: "µg/mL"
  MBC: 4
- chem_smiles: "CCCCCCC#Cc1ccc(-c2nc(C)c(/C(C)=N/NC(=N)N)s2)cc1"
  result_unit: "µg/mL"
  MBC: 4

Fill in the blank: the reported MBC of "C/C(=N\NC(=N)N)c1sc(-c2ccc(C#CCC3CCCC3)cc2)nc1C" is ____. 4

Now consider "C/C(=N\NC(=N)N)c1sc(-c2ccc(C#CC(C)(C)C)cc2)nc1C" and answer again. 2

What do you get for "CCCCCC#Cc1ccc(-c2nc(C)c(/C(C)=N/NC3=NCCN3)s2)cc1" ? 32

Input "C/C(=N\NC1=NCCN1)c1sc(-c2ccc(C#CC(C)(C)C)cc2)nc1C" 2

// same read-out, input: "C/C(=N\NC(=N)N)c1sc(-c2ccc(C#CC3CC3)cc2)nc1C" 2
